target: Beta-secretase 1 (Homo sapiens, UniProt P56817); assay: Inhibition of human brain beta-secretase, using MBPC125Swe (maltose-binding-protein C-125 Swedish) assay
Sequence (P56817 whole entry): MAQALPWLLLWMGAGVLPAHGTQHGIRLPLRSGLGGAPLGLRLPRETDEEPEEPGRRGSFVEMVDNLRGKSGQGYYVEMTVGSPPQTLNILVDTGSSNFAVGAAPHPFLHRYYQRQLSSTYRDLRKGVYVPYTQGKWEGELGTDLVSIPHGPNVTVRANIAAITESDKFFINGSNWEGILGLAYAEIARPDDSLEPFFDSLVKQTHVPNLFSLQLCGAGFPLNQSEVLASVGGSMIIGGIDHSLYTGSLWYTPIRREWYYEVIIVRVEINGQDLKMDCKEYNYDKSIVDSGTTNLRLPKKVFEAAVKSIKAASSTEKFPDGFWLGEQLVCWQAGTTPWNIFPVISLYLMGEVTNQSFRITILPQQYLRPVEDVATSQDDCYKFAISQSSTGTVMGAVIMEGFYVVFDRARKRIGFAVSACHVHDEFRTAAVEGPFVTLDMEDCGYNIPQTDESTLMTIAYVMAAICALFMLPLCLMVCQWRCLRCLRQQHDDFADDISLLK
Starred links: 1 amine or outer side, 2 acyl side, 3 side chain; linkers in the order of their positions; H or OH if unused. Non-standard residues stand in square brackets, D forms with d. Residues, ends and D or L forms follow the SMILES beside them. ξ: configuration not given here. Sta(3ξ) = CC(C)C[C@H](N[*:1])C(O)CC(=O)[*:2]; X1 = CC(C)CC(N[*:1])C(O)CC(=O)[*:2]
MEASUREMENT_LABEL: IC50 (µM)

// known answers, use as guide
COMPOUND	IC50 [µM]
CC(C)C[C@H](NC(=O)[C@H](CC(N)=O)NC(=O)[C@@H](N)C(C)C)C(O)CC(=O)N[C@H](C(=O)N[C@@H](C)C(=O)N[C@@H](CCC(=O)O)C(=O)N[C@@H](Cc1ccccc1)C(=O)O)C(C)C (some centres undefined) (H-VN[Sta(3ξ)]VAEF-OH)	9
CC(C)C[C@H](NC(=O)[C@H](CC(N)=O)NC(=O)[C@@H](NC(=O)[C@@H](N)CCC(=O)O)C(C)C)C(O)CC(=O)N[C@H](C(=O)N[C@@H](C)C(=O)N[C@@H](CCC(=O)O)C(=O)N[C@@H](Cc1ccccc1)C(=O)O)C(C)C (some centres undefined) (H-EVN[Sta(3ξ)]VAEF-OH)	0.04

P: CSCC[C@H](NC(=O)[C@@H](NC(C)=O)C(C)C)C(=O)NC(CC(C)C)C(O)CC(=O)N[C@@H](Cc1ccccc1)C(=O)N[C@@H](C)C(=O)N[C@@H](CCC(=O)O)C(=O)N[C@@H](Cc1ccccc1)C(=O)O (some centres undefined) (Ac-VM[X1]FAEF-OH)
Q: CSCC[C@H](NC(=O)[C@@H](NC(C)=O)C(C)C)C(=O)NC(CC(C)C)C(O)CC(=O)N[C@@H](C)C(=O)N[C@@H](C)C(=O)N[C@@H](CCC(=O)O)C(=O)N[C@@H](Cc1ccccc1)C(=O)O (some centres undefined) (Ac-VM[X1]AAEF-OH)
Record comparison, field IC50: mark the lower of P and Q . Choose, then provide that item's label.
Q
